Data origin: the supplement of paper PMC5998384

sequences and their reported melting temperature
Test system: HeLa Kyoto;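 also: HeLa Kyoto cells synchronized by double thymidine or nocodazole block, proteins quantified by TMT10plex mass spectrometry, three independent biological replicates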
Test: melting temperature (median over replicates), in situ; higher = more thermally stable
Settings: cell cycle stage: G1/S
Your answer is read as °C, so omit the unit and give the number.

>>> reported_result("MVQLRPRASRAPASAEAMVDEGQLASEEEEAEHGLLLGQPSSGAAAEPLEEDEEGDDEFDDEAPEELTFASAQAEAREEERRVRETVRRDKTLLKEKRKRREELFIEQKKRKLLPDTILEKLTTASQTNIKKSPGKVKEVNLQKKNEDCEKGNDSKKVKVQKVQSVSQNKSYLAVRLKDQDLRDSRQQAAQAFIHNSLYGPGTNRTTVNKFLSLANKRLPVKRAAVQFLNNAWGIQKKQNAKRFKRRWMVRKMKTKK [NOL7]")
56.9

[in] Which melting temperature value is on record for MAYPGHPGAGGGYYPGGYGGAPGGPAFPGQTQDPLYGYFAAVAGQDGQIDADELQRCLTQSGIAGGYKPFNLETCRLMVSMLDRDMSGTMGFNEFKELWAVLNGWRQHFISFDTDRSGTVDPQELQKALTTMGFRLSPQAVNSIAKRYSTNGKITFDDYIACCVKLRALTDSFRRRDTAQQGVVNFPYDDFIQCVMSV [SRI] ?
[out] 52.8

[in] Then this sequence: MAAASGSVLQRCIVSPAGRHSASLIFLHGSGDSGQGLRMWIKQVLNQDLTFQHIKIIYPTAPPRSYTPMKGGISNVWFDRFKITNDCPEHLESIDVMCQVLTDLIDEEVKSGIKKNRILIGGFSMGGCMAIHLAYRNHQDVAGVFALSSFLNKASAVYQALQKSNGVLPELFQCHGTADELVLHSWAEETNSMLKSLGVTTKFHSFPNVYHELSKTELDILKLWILTKLPGEMEKQK [LYPLAL1]
[out] 52

[in] How about this sequence: MGTPGEGLGRCSHALIRGVPESLASGEGAGAGLPALDLAKAQREHGVLGGKLRQRLGLQLLELPPEESLPLGPLLGDTAVIQGDTALITRPWSPARRPEVDGVRKALQDLGLRIVEIGDENATLDGTDVLFTGREFFVGLSKWTNHRGAEIVADTFRDFAVSTVPVSGPSHLRGLCGMGGPRTVVAGSSDAAQKAVRAMAVLTDHPYASLTLPDDAAADCLFLRPGLPGVPPFLLHRGGGDLPNSQEALQKLSDVTLVPVSCSELEKAGAGLSSLCLVLSTRPHS [DDAH2]
[out] 55.2

[in] How about this sequence: MASPGCLLCVLGLLLCGAASLELSRPHGDTAKKPIIGILMQKCRNKVMKNYGRYYIAASYVKYLESAGARVVPVRLDLTEKDYEILFKSINGILFPGGSVDLRRSDYAKVAKIFYNLSIQSFDDGDYFPVWGTCLGFEELSLLISGECLLTATDTVDVAMPLNFTGGQLHSRMFQNFPTELLLSLAVEPLTANFHKWSLSVKNFTMNEKLKKFFNVLTTNTDGKIEFISTMEGYKYPVYGVQWHPEKAPYEWKNLDGISHAPNAVKTAFYLAEFFVNEARKNNHHFKSESEEEKALIYQFSPIYTGNISSFQQCYIFD [GGH]
[out] 60.5

[in] What do we get for MDLWPGAWMLLLLLFLLLLFLLPTLWFCSPSAKYFFKMAFYNGWILFLAVLAIPVCAVRGRNVENMKILRLMLLHIKYLYGIRVEVRGAHHFPPSQPYVVVSNHQSSLDLLGMMEVLPGRCVPIAKRELLWAGSAGLACWLAGVIFIDRKRTGDAISVMSEVAQTLLTQDVRVWVFPEGTRNHNGSMLPFKRGAFHLAVQAQVPIVPIVMSSYQDFYCKKERRFTSGQCQVRVLPPVPTEGLTPDDVPALADRVRHSMLTVFREISTDGRGGGDYLKKPGGGG [AGPAT1] ?
[out] 53.3
